Test: 14-day oral gavage toxicokinetic study in rats
Assay type: in vivo
Conditions: female, rat, plasma, po, 30 mg/kg, Mean Compound 1 Plasma Concentration, rats, oral 30 mg/kg, Day 1, 24 h, Female
assayReadout: concentration at 24 h (ng/mL)
Output spec: scalar in ng/mL, unitless text.

Input line: What concentration at 24 h value was documented for this molecule, `CN1CCN(c2ccc(Nc3ncc4cc5n(c4n3)C3(CCCCC3)CNC5=O)nc2)CC1` ?
Output line: 284

###

Experiment: 14-day oral gavage toxicokinetic study in rats
Type: in vivo
Conditions: female, rat, plasma, po, 5 mg/kg, Individual Compound 1 Plasma Concentration, rats, daily oral 5 mg/kg, Day 14, Female, 8 h
assayReadout: concentration at 8 h
Be sure to follow the number with its unit.

Input line: What concentration at 8 h value was documented for this compound, `CN1CCN(c2ccc(Nc3ncc4cc5n(c4n3)C3(CCCCC3)CNC5=O)nc2)CC1` ?
Output line: 0.234 µg/mL

###

Assay: Topotecan PK following Compound 1 infusion
Type: in vivo, human
Conditions: human, plasma, intravenous, Topotecan […]^2 (Cohort 1) with Compound 1 200 mg/m^2, Day 1, Median; read-out: AUCx5 (converted)
assayReadout: AUC (µM·h)
Output spec: scalar in µM·h, unitless text.

Input line: What AUC value was documented for this molecule, `CC[C@@]1(O)C(=O)OCc2c1cc1n(c2=O)Cc2cc3c(CN(C)C)c(O)ccc3nc2-1.Cl` ?
Output line: 1.66

###

Experiment: 14-day oral gavage toxicokinetic study in rats
Type: in vivo
Details: male, rat, plasma, po, 2 mg/kg, Compound 1 Plasma Concentration, rats, Male, Day 1, 8 h; daily oral 2 mg/kg (Group 7); individual animals
assayReadout: concentration at 8 h (ng/mL)
Output spec: scalar in ng/mL, unitless text.

Input line: What concentration at 8 h value was documented for this molecule, `CN1CCN(c2ccc(Nc3ncc4cc5n(c4n3)C3(CCCCC3)CNC5=O)nc2)CC1` ?
Output line: 99

###

Test: Topotecan PK following Compound 1 infusion
Type: in vivo, human
Details: human, plasma, intravenous, Topotecan 0.75 mg/m^2 (Cohort 3) with Compound 1 200 mg/m^2, Day 1, Median; read-out: AUCx5 (converted)
Description: Blood samples were obtained prior to dosing, at the end of the 30-minute infusion (EOI), and at 0.5, 1, 1.5, 2, 2.5, 4, 6, 8, and 24 hours after the end of infusion. Analysis of plasma concentration versus time data for calculation of standard pharmacokinetic (PK) parameters following intravenous infusion administration was conducted using Phoenix WinNonlin version 6.3 using a nominal infusion duration and scheduled blood sampling times. […]
assayReadout: AUC (µM·h)
Output spec: scalar in µM·h, unitless text.

Input line: What AUC value was documented for this molecule, `CC[C@@]1(O)C(=O)OCc2c1cc1n(c2=O)Cc2cc3c(CN(C)C)c(O)ccc3nc2-1.Cl` ?
Output line: 0.992

###

Test: Compound 1 PK dosed Days 1-5 with topotecan
Type: in vivo, human
Settings: human, plasma, intravenous, Cohort 3 (Topotecan 0.75 mg/m^2); Day 1; mean; read-out: concentration at 24.5 hours after the start of infusion, averaging
assayReadout: concentration at 24.5 h

Input line: What concentration at 24.5 h value was documented for this compound, `CN1CCN(c2ccc(Nc3ncc4cc5n(c4n3)C3(CCCCC3)CNC5=O)nc2)CC1` ?
Output line: 13.3 ng/mL
